Where do these numbers come from? They come from the DeepSol protein solubility set.

Experiment: soluble on expression in E. coli; label from the status in PepcDB or PDB records

sequence.text: MKFKIHSDITYQVMSPTTFIFNVHALRTESQHILDESLIVTPPIEIEEFSYNSGTSRFVRLKATENTTFSMSYTATVDTQYKVIDQRQELETVPVVDLDGDIIPFLFPSRYCQSDKLQKLAYKEFGKIENVYSKVLAITDWIYNNVEYISGSTNSQTSAFDTITERAGVCRDFAHLGIALCRALSIPARYFTGYAFKLNPPDFHACFEAYIGGNWIIFDATRLVPLNGLVKIATGRDAADAAVASIFGNASSTNMHVECASLDTDFTPFWYDKNSLKGLSFQ
soluble on expression in E. coli: soluble
--
sequence.text: GSHADLLRKNAEVTKQVSMARQAQVDLEREKKELEDSLERISDQGQRKTQEQLEVLESLKQELATSQRELQVLQGSLETSAQSEANWAAEFAELEKERDSLVSGAAH
soluble on expression in E. coli: soluble

---

Experiment: soluble on expression in E. coli; label from the status in PepcDB or PDB records

sequence.text: MSLSRGRLKIAVPRLQRVANFDDLDPLVAEPDIDLQWIQPGSPIPADVDVVVLPGSKATRTELDLMRREGWDIDIHAHVRRGGRVVGLCAGFQMLGKVVRDPQGIEGPAGETAGLGLLDIETEISGDKRLIEIDAVDRISGCRVVGYEMHMGRTTGAGLARPWLRLEEGGSERAEGAVSADGRVSGGYLHGIFGGDAFRSAWLAQIGAASSGLDFERRVEETLDALADHCESNLDLDALLALAREGHHHHHH
soluble on expression in E. coli: soluble
--
sequence.text: KVYSLRLNQKRNEKPSIFANENVRKALAYALDKKSLVDNILADGSKEIYGYIPEKFVYNPETNEDFRQEAGALVKTDAKKAKEYLDKAKAELNGDVAIELLSRDGDSDRKVAEFIQGQLQETLPGLTINVKTVPLNNAIELMRKGDYELSVGMWGPDYQDPMTFLESSVSGNRMNYSSPTFDQLIEEATTKYANEPETRWQTLIKAEKVLVEEDAALIPLYQEA
soluble on expression in E. coli: not soluble
--
sequence.text: MSLKAFLPLLFSFFFIISCQQHKEATISPIDEEDELQEEADSLPRATAIFWLDKYHMKELKKDDVLTFRTAKAKVVIRNDGTIDLLSFVEQQPGNAQRYIRYRLKDFKVKKILMDNGYINPGEQYVQLRYIPALARRVKEGHHHHHH
soluble on expression in E. coli: soluble
--
sequence.text: MGSDKIHHHHHHVINLKELKILHTSDWHLGVTSWTSSRPVDRREELKKALDKVVEEAEKREVDLILLTGDLLHSRNNPSVVALHDLLDYLKRMMRTAPVVVLPGNHDWKGLKLFGNFVTSISSDITFVMSFEPVDVEAKRGQKVRILPFPYPDESEALRKNEGDFRFFLESRLNKLYEEALKKEDFAIFMGHFTVEGLAGYAGIEQGREIIINRALIPSVVDYAALGHIHSFREIQKQPLTIYPGSLIRIDFGEEADEKGAVFVELKRGEPPRYERIDASPLPLKTLYYKKIDTSALKSIRDFCRNFPGYVRVVYEEDSGILPDLMGEIDNLVKIE
soluble on expression in E. coli: soluble
--
sequence.text: MKYTFLLLCAIFGCTLAMRQQSVAVSGKLMCGSKPASGVKVKLWDEDDGPDPDDVLDEGFTNNDGTFRLEGSERELTNIDPVFKVYHDCDDGIIPGQRKIKFRIPNKYISAGGRAQKTFEIGVLNLETIFPKEERDLL
soluble on expression in E. coli: not soluble
--
sequence.text: AQKPWEKDAWEIPRESLKLEKKLGAGQFGEVWMATYNKHTKVAVKTMKPGSMSVEAFLAEANVMKTLQHDKLVKLHAVVTKEPIYIITEFMAKGSLLDFLKSDEGSKQPLPKLIDFSAQIAEGMAFIEQRNYIHRDLRAANILVSASLVCKIADFGLARVIEDNEYTAREGAKFPIKWTAPEAINFGSFTIKSDVWSFGILLMEIVTYGRIPYPGMSNPEVIRALERGYRMPRPENCPEELYNIMMRCWKNRPEERPTFEYIQSVLDDFE
soluble on expression in E. coli: soluble
--
sequence.text: HGPASRLLHRHIREQLKDLKEVSHESLVVGAVENAFQLMDEQMARERRGHQVEGGCCALVVIYLLGKVYVANAGDSRAIIVRNGEIIPMSREFTPETERQRLQLLGFLKPELLGSEFTHLEFPRRVLPKELGQRMLYRDQNMTGWAYKKIELEDLRFPLVCGEGKKARVMATIGVTRGLGDHSLKVCSSTLPIKPFLSCFPEVRVYDLTQYEHCPDDVLVLGTDGLWDVTTDCEVAATVDRVLSAYEPNDHSRYTALAQALVLGARGTPRDRGWRLPNNKLGSGDDISVFVIPLGGPGSYSVRASSPSPL
soluble on expression in E. coli: not soluble
--
sequence.text: MKRLLLSAAILSSMALFNVNAQELKTSADMKGSFKKNVVLEVFTAEWCGYCPGGKERIAKAIEMLDDEYKERVFQTFVHYNDGISKKWPRVGQLFIALDQTLGIPGFPTFSVCRMEKKGENLSIGAPIAIKNKIMKGFGDGTAPAEVNLKLTKGATPEDVCTATFTGKVDADLIGKPLMLTAYVLKNNMKPINPQNGAGDGYLHQHTVLMILSTDVKGDALNIAADGSFTIKKEFKLDGFEIKDTDVLAFVHHPMSNAENHSIINAGQESLDKAEPTATEQIVATPSVKAYVQNGKIVVEEEYSKMEVFNATGQLVKNESLVPGVYVVRITANGVMYFLKVLVP
soluble on expression in E. coli: not soluble
--
sequence.text: MLGGNNDNPVPQVLMNDSQFRYQSNTSLNQLHLLGTMRAGCTIDPVNYFANDNLAPMMRLNSTRGRETENNNIMQRQQKLQISLNYNYNNNNTVVQDEVPKQNLVSTGLRLSYDDDERNSSVTSANGSITTPVYQSLGDNIRLDLNRQNDELDQFIKFRADQMAKGVRDIKQRHVTSFVTALEKDVSKKLQEKDHEIESMNKKNRELVDKIKQVAVEAQNWHYKAKYNESVVNALKVNLQQVMSHGNDNNAVGGGVADHHQMKEGFGDSEIDDEAASYNYLNIPGMPSTGMRCKLCNVKNVSVLLVPCRHLSLCKDCDVFTGVCPVCQSLKTSSVQVFFF
soluble on expression in E. coli: soluble
--
sequence.text: MGSDKIHHHHHHMSLSYKEMHQTLMEELRLYHYPVAVKFFFDDEELATFKEKAEFYVPVKPMTFCQWELAARMKGQTVLATREDLGCSNALVSFGWKDIDDNEIKSHMKYVRSIEQAEKFVRSKPRLDMGSVKAIAVGPLGDAIVAPSVVHFYCDNMQSYHLAVDYMAAMDQHPLRTNVTMNSSACGGTVFSFLEKTANMLPACSGSYNAGKTERGEINFMIPGEHIEATVERLLERKRNLGSSAITRPGDGFPGADVCKNCPLIIFKKEK
soluble on expression in E. coli: not soluble
--
sequence.text: MSKEYHIRELIMRLARLDVSESWAEDLNPAQRAVLEYLSRANKFSRSPSHVAAFLGTTRGTISQTFKALLQKNYVTEKRSQSDKRVISFDLTQKGRALLARPRLLISGLESLDSSEQNALLSTLQSTLNSLLEQNKGQPFGLCKECRHFTSSNGGGYCNLLSEKLAPPETEQICHEQDPL
soluble on expression in E. coli: not soluble
--
sequence.text: MGFQLRGTGTQELSIKELDLSARDAYGTTIKMLKQQLESSGVRVHAGAPYKLVLLSEENSQRTLSYTGGGNSAEYEIGTTLRYEILTHDNLHLLDDKLEVQKVFLHDGNNITGSDQESSETRKEMRRDLIQRMLIRLQLLTPEQLAQLQATAEAKAKAEADALEAARKAEAETPQQSPMELPNQLEHHHHHH
soluble on expression in E. coli: not soluble

---

Experiment: soluble on expression in E. coli; label from the status in PepcDB or PDB records

sequence.text: MGSDKIHHHHHHMKILYIITGLPTGGAEMMLYKLLSQINQERFEPIVVSLMDRGTLGDRIEALGIPVHTIGMNRGGIPMPVDVWRLVHLVDRLQPDIIQGWMYHGNLAAQFASFLNGNKIPIVWSIHYSIDSLESDKKMTVAIIKFSAYISRLPKQVLFVSQNSKLQHEALGYSSKNSCIIPNGFDTISFSPSLTERVDVRSELSLPHESLLIGLICRYHPMKDHANFIQAAALFLKEHPNINFLMIGQGVDRDNPTLNKLIKELGIGDRISLLGERKDIPRLITSLDIFTSASAYGEAFPLVIGEAMSCGIPCVVTDVGDSGWIVGNTGKVIPPRNPQMLADAWKELIALGEEGRNILGKAARARITEDFALNSVVAKYELVYEKILSNMST
soluble on expression in E. coli: not soluble
--
sequence.text: TTCCPSIVARSNFNVCRLPGTPEALCATYTGCIIIPGATCPGDYAN
soluble on expression in E. coli: soluble
--
sequence.text: MGSDKIHHHHHHCSTEVTEYRQQQPALDIFHYFQGRTEAWGMVQDRSGKQLRRFHVEIDGDVVGDTLTLHERFVYDDGEKQQRIWRIRRTGDNRYQGTAGDIEGVASGQAAGNAFHWRYSMNVEASGSRWLLHFDDWMFLQDGSHLFNKTEMKKFGITVATVTLFFTRTTAEERTAP
soluble on expression in E. coli: not soluble
--
sequence.text: MGMYFVGIDGGGTSCRARIKDSQGNFLGEAKSGSANIMLGAEIAMASILESITSAAEQGGLTQQDFASMHVGLALAGAEHKASWQAFMSLPHPFASMTLNTDAYGACVGAHNGEDGAIMIAGTGSCGIYLKGLEQHVVGGREFPISDQGGGAVMGLRLVQQVLLAEDGIREKTPLAQHVMAYFENDVDNVVAWSKQALPRDYGQFSPAIFQHAEQGDALAIEMLKQTAADIEMFLVALNKRGATRICLMGSIAERILRWLSPPVQQWVVEPQFDAIEGAIMFAGKPEHNLYSLSAALEHHHHHH
soluble on expression in E. coli: not soluble
--
sequence.text: MGSDKIHHHHHHMFRILTINPGSTSTKLSIFEDERMVKMQNFSHSPDELGRFQKILDQLEFREKIARQFVEETGYSLSSFSAFVSRGGLLDPIPGGVYLVDGLMIKTLKSGKNGEHASNLGAIIAHRFSSETGVPAYVVDPVVVDEMEDVARVSGHPNYQRKSIFHALNQKTVAKEVARMMNKRYEEMNLVVAHMGGGISIAAHRKGRVIDVNNALDGDGPFTPERSGTLPLTQLVDLCFSGKFTYEEMKKRIVGNGGLVAYLGTSDAREVVRRIKQGDEWAKRVYRAMAYQIAKWIGKMAAVLKGEVDFIVLTGGLAHEKEFLVPWITKRVSFIAPVLVFPGSNEEKALALSALRVLRGEEKPKNYSEESRRWRERYDSYLDGILR
soluble on expression in E. coli: not soluble
--
sequence.text: VVELDETPVRTLLARQGIYDKNSAIVAYELLYRNSDAENSHVDNLNQSSGEAATSSVLVQLFANLDVNTIIGNKQAFINFTHSHLVQKIPMLLPKNRIVIEVLETVAIDQPLLLNLMELKKQGYQIALDDFVFRNELAPLVDMADIIKIDVLHLDQQQIAEQLLPLKSFRGKLLAEKIEDKQQFNHCVNLGFDFFQGFFLNKP
soluble on expression in E. coli: not soluble
--
sequence.text: MSLQHNELKTPYFMINEDKLIANLEKAKQLKEISGVKLVLALKCFSTWGVFDIIKPYLDGTTSSGPFEVKLGYETFGGETHAYSVGYSEDDVREVADICDKMIFNSQSQLAAYRHIVEGKASIGLRLNPGVSYAGQDLANPARKFSRLGVQADHIKPEVFEGIDGVMFHMNCENKDVDAFIGLLDAISEQFGEYLNKLDWVSMGGGVFFTWPGYDIEKLGLALKAFSEKHGVQMYLEPGEAIITKTTDLVVTVVDIVENVKKTAIVDSATEAHRLDTLIYNEPASILEASDNGEHEYVIGSCSCLAGDQFCVANFDQPLEIGQRLHILDSAGYTMVKLNWFNGLRMPSVYCERSSGEIQKLNEFDYSDFKRSLSEGHHHHHH
soluble on expression in E. coli: not soluble
--
sequence.text: MSLNTVYHSYQSLPNEGWGKSDTLSFQCPVTDSIPGTLRLFAEVRNRSEYPYRNLYLFIHENLLDSTVWRTDTIAVNLADSTGRWTGNGWGSIYQTAVFVKSVRPLHPGNYTVKIVHGMQDEKLTGLNDVGIRIEKQGEGHHHHHH
soluble on expression in E. coli: soluble
--
sequence.text: SQVDVKDCANHEIKKVLVPGCHGSEPCIIHRGKPFQLEAVFEANQNTKTAKIEIKASIDGLEVDVPGIDPNACHYMKCPLVKGQQYDIKYTWNVPKIAPKSENVVVTVKVMGDDGVLACAIATHAKIRD
soluble on expression in E. coli: soluble
--
sequence.text: MNDELFNLIERLANLLRQETRLEGQSLGLQPIQQEALYYLSTCNRYSDTTLAVTEFLGLTKGTVSQSLKILESKSLIAKVKDKKDKRITHLKVTETGREFLMKTCPPQKFTDAIAGLSVDEEFETKTLLKKVLSNYQLATGRTAFGVCKHCKFNRKTSDGILCDLTKEALSSDDIMLICREYVV
soluble on expression in E. coli: not soluble
--
sequence.text: MSLRTKSWTDDLKVCNQTGVGEAINQIYKDDGRRCEGYESRDKKCLCISDNNTSLYAILSGHNGVTVAENALQEMAAELLLGQLNVCNTDEAVKELIRQSFMSVEKGYFDSINPHVATKTAIQLHLSADGMNQYEISQQFENVLQKLDSLNNALSVGSSAVLALIHRSHLYLGNIGNCRALLCKTDEHDTLTVTQLSVDHNLLNAEEAARLFRLGLMAQNFEGVPLYSTRCIGNYLGKAGYKDCNFLSSATAEPVIFEPEIVGGIQITPACRFLVLMSSGLCRALHEIFPGDASTGNRELVRMISEEFQNQSTLGGVAQSVVHRIVQAHHDTYMQLVEEHRSVTFNSRDDVTLLIRNFNYAEGHHHHHH
soluble on expression in E. coli: soluble
--
sequence.text: MEDPVFTFGLIADVQYADIEDGENYLRTRRRYYRGSADLLRDAVLQWRRERVQCVVQLGDIIDGHNRRRDASDRALDTVMAELDACSVDVHHVWGNHEFYNFSRPSLLSSRLNSAQRTGTDTGSDLIGDDIYAYEFSPAPNFRFVLLDAYDLSVIGREEESEKHTHSWRILTQHNHNLQDLNLPPVSVGLEQRFVKFNGGFSEQQLQWLDAVLTLSDHKQERVLIFSHLPVHPCAADPICLAWNHEAVLSVLRSHQSVLCFIAGHDHDGGRCTDSSGAQHITLEGVIETPPHSHAFATAYLYEDRMVMKGRGRVEDLTITYS
soluble on expression in E. coli: not soluble
